Entries and their growth AUC values follow.
Test system: Escherichia coli IAI1
method: growth AUC relative to DMSO control (median of replicates) (fraction); higher = more growth (less inhibition), active = hit call of the paper
experimental_parameters: 20 µM; 24 h

Consider the worked cases shown below.
Consider the compound shown here: Cc1nn(C)c(OCC(=O)c2ccccc2)c1C(=O)c1ccc(Cl)cc1Cl What is its recorded growth AUC?
1 (inactive)

Consider the compound shown here: CCCCCCCCCC[N+](C)(C)Cc1ccccc1.[Cl-] What is its recorded growth AUC?
0.969 (inactive)

Consider the compound shown here: CC(=O)CC(c1ccccc1)c1c(O)c2ccccc2oc1=O (configuration not stated) What is its recorded growth AUC?
0.982 (inactive)

Consider the compound shown here: COCC(=O)N(c1c(C)cccc1C)C(C)C(=O)O (configuration not stated) What is its recorded growth AUC?
1.01 (inactive)

Consider the compound shown here: COc1cc(OC)c(Cl)cc1N What is its recorded growth AUC?
1.01 (inactive)

Further cases:
Consider the compound shown here: O=C(O)c1ccc(Cl)cc1Cl What is its recorded growth AUC?
0.993 (inactive)

Consider the compound shown here: O=S(=O)(Oc1ccc(Cl)cc1)c1ccccc1 What is its recorded growth AUC?
0.967 (inactive)

Consider the compound shown here: CC(Oc1ccc(Cl)cc1Cl)C(=O)NC(C)(C#N)C(C)C (configuration not stated) What is its recorded growth AUC?
1.01 (inactive)

Consider the compound shown here: CC(=O)Oc1c(Cl)c(Cl)c(Cl)c(Cl)c1Cl What is its recorded growth AUC?
0.808 (inactive)

Consider the compound shown here: CCc1ccc(O)cc1 What is its recorded growth AUC?
0.997 (inactive)

Consider the compound shown here: CCNc1nc(NC(C)(C)C)nc(OC)n1 What is its recorded growth AUC?
1.03 (inactive)

Consider the compound shown here: CC(C)CCCCCCc1ccc(O)cc1 What is its recorded growth AUC?
1.01 (inactive)

* * *

System: Bacteroides clarus
method: growth AUC relative to DMSO control (median of replicates) (fraction); higher = more growth (less inhibition), active = hit call of the paper
experimental_parameters: 20 µM; 24 h
property_measured: growth AUC

Consider the worked cases shown below.
Consider the compound shown here: CCCCCCCC/C=C\CCCCCCCC(N)=O What is its recorded growth AUC?
0.991 (inactive)

Consider the compound shown here: Cc1[nH]n(C)c(=O)c1C(=O)c1ccc(C(F)(F)F)cc1S(C)(=O)=O What is its recorded growth AUC?
0.997 (inactive)

Consider the compound shown here: CC(C)N(C(=O)CS(=O)(=O)[O-])c1ccc(F)cc1.[Na+] What is its recorded growth AUC?
0.979 (inactive)

Consider the compound shown here: COc1nc(NC(=O)NS(=O)(=O)c2ccccc2C(F)(F)F)nc(C(F)(F)F)n1 What is its recorded growth AUC?
0.979 (inactive)

Consider the compound shown here: CCc1cccc(C)c1NC(=O)C(=O)O What is its recorded growth AUC?
0.999 (inactive)

From here, focus on the item given below.
Consider the compound shown here: COc1nc(N)nc(C(F)(F)F)n1 What is its recorded growth AUC?
0.992 (inactive)

* * *

Entries and their growth AUC values follow.
Test system: Lactobacillus paracasei
method: growth AUC relative to DMSO control (median of replicates) (fraction); higher = more growth (less inhibition), active = hit call of the paper
experimental_parameters: 20 µM; 24 h

Consider the compound shown here: Cc1cc(C)cc(OCC(C)Nc2nc(N)nc(C(C)(C)F)n2)c1 (stereo unspecified) What is its recorded growth AUC?
0.993 (inactive)

Consider the compound shown here: C[S+](C)CCC(=O)O.[Cl-] What is its recorded growth AUC?
1.01 (inactive)

Consider the compound shown here: Cc1ccc(C(C)NC(=O)[C@@H](NC(=O)OC(C)C)C(C)C)cc1 (stereo partly specified) What is its recorded growth AUC?
1.02 (inactive)

Consider the compound shown here: O=C(O)c1ccc(Cl)cc1Cl What is its recorded growth AUC?
0.994 (inactive)

Consider the compound shown here: COc1ccc(Cl)c(Cl)c1Cl What is its recorded growth AUC?
0.993 (inactive)

Consider the compound shown here: CCNc1nc(NC(C)(C)C)nc(OC)n1 What is its recorded growth AUC?
1.01 (inactive)

Further cases:
Consider the compound shown here: CC(CNC(=S)[S-])NC(=S)[S-].[Zn+2] (mixture of isomers) What is its recorded growth AUC?
1.14 (inactive)

Consider the compound shown here: CCCNCCOc1c(Cl)cc(Cl)cc1Cl What is its recorded growth AUC?
0.966 (inactive)

* * *

System: Lactobacillus gasseri
method: growth AUC relative to DMSO control (median of replicates) (fraction); higher = more growth (less inhibition), active = hit call of the paper;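 active = AUC reduced over 20% with Padj below 0.05 in at least 2 of 3 replicates; inactive = otherwise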
experimental_parameters: 20 µM; 24 h
Returns: one label drawn from 1 (active), -1 (inactive)

# outcome recorded in this test, key = CCc1nc2ncnn2c(N)c1CCCC(=O)O.Cl
-1

# outcome recorded in this test, key = CC(C)(c1cc(Br)c(O)c(Br)c1)c1cc(Br)c(O)c(Br)c1
1

# outcome recorded in this test, key = CON(C(=O)c1cc(C)oc1C)C1CCCCC1
-1

# outcome recorded in this test, key = O=C(O)Cc1cccc2ccccc12
-1

# outcome recorded in this test, key = C/C=C/C(=O)Oc1c(C(C)CCCCCC)cc([N+](=O)[O-])cc1[N+](=O)[O-] (mixture of isomers)
1

# outcome recorded in this test, key = CCOc1ccc2c(c1)C(C)=CC(C)(C)N2
-1

# outcome recorded in this test, key = COc1cc(OC)nc(NC(=O)NS(=O)(=O)c2c(Cl)nc3ccccn23)n1
-1

# outcome recorded in this test, key = O=C(O)c1cccc2nnsc12
-1

# outcome recorded in this test, key = Cn1cc(C(=O)Nc2ccc(F)cc2-c2ccc(Cl)c(Cl)c2)c(C(F)F)n1
-1

# outcome recorded in this test, key = S=C([S-])NCCNC(=S)[S-].S=C([S-])NCCNC(=S)[S-].[Mn+2].[Zn+2]
-1

# outcome recorded in this test, key = CCCOC(=O)c1ccc(O)cc1
-1

* * *

System: Bacteroides caccae
method: growth AUC relative to DMSO control (median of replicates) (fraction); higher = more growth (less inhibition), active = hit call of the paper
experimental_parameters: 20 µM; 24 h
Entries and their growth AUC values follow.
# respond with the number and nothing more

Consider the worked cases shown below.
Consider the compound shown here: COc1nc(N)nc(NC(C)(C)C)n1 What is its recorded growth AUC?
0.996

Consider the compound shown here: CC(C)(C)Nc1nc(N)nc(Cl)n1 What is its recorded growth AUC?
0.991

Consider the compound shown here: CC(C)(c1ccc(O)cc1)c1ccc(O)cc1 What is its recorded growth AUC?
1.07

Further cases:
Consider the compound shown here: CCC(C)Nc1nc(N)nc(Cl)n1 (stereo not drawn) What is its recorded growth AUC?
0.906

Consider the compound shown here: CC(C)(CO)C(O)(CCc1ccc(Cl)cc1)Cn1cncn1 (stereo not drawn) What is its recorded growth AUC?
0.955

Consider the compound shown here: CCc1cccc(C)c1N(COC(C)C)C(=O)CCl What is its recorded growth AUC?
1

Consider the compound shown here: CCc1cccc(C)c1N(C(=O)CS(=O)(=O)[O-])C(C)COC.[Na+] (stereo not drawn) What is its recorded growth AUC?
0.952

Consider the compound shown here: CCOC(N)=O What is its recorded growth AUC?
1.01

Consider the compound shown here: CCOC(=O)CSc1nc(C(C)(C)C)nn1C(=O)N(C)C What is its recorded growth AUC?
0.951

Consider the compound shown here: CCCCCCCC/C=C\CCCCCCCCCCCCC What is its recorded growth AUC?
0.961

Consider the compound shown here: Cc1[nH]n(C)c(=O)c1C(=O)c1ccc(C(F)(F)F)cc1S(C)(=O)=O What is its recorded growth AUC?
1.06

Consider the compound shown here: CP(=O)(O)CCC(=O)O What is its recorded growth AUC?
0.975

Consider the compound shown here: ClC(COCC(Cl)C(Cl)(Cl)Cl)C(Cl)(Cl)Cl (stereo not drawn) What is its recorded growth AUC?
0.969

* * *

System: Escherichia coli IAI1
method: growth AUC relative to DMSO control (median of replicates) (fraction); higher = more growth (less inhibition), active = hit call of the paper
experimental_parameters: 20 µM; 24 h
If the reported growth AUC equals or exceeds 1, assign fulfilled. If not, assign not fulfilled.

Observe how each entry below is paired with its result.
Hello, I need to know if Cc1cc(C)cc(OCC(C)Nc2nc(N)nc(C(C)(C)F)n2)c1 (stereo not given) has measured growth AUC not below 1. Thanks!
not fulfilled

Hello, I need to know if COC(=O)c1ccc(C(F)(F)F)nc1S(=O)(=O)[N-]C(=O)Nc1nc(OC)cc(OC)n1.[Na+] has measured growth AUC not below 1. Thanks!
not fulfilled

Hello, I need to know if CN(C)C(=O)c1cccnc1S(N)(=O)=O has measured growth AUC not below 1. Thanks!
fulfilled

Further cases:
Hello, I need to know if CCCCCCCC/C=C\CCCCCCCCCCCCC has measured growth AUC not below 1. Thanks!
fulfilled

Hello, I need to know if CN(C)C=O has measured growth AUC not below 1. Thanks!
fulfilled
